Measured IC50 accompanies every entry in the list below.
Tested on: AR mRNA
Experiment: Dose-dependent antisense inhibition of human AR in HuVEC cells (electroporation, qRT-PCR RTS3559, IC50)
Assay type: cell-based
Conditions: Table 29; HuVEC, electroporation, approximately 16 hours
Oligonucleotides are written 5' to 3', each unit as a sugar letter and its base; * is a phosphorothioate linkage, no mark a phosphodiester; rarer units and linkages stand in square brackets, end groups in braces. Plain capitals give the bases only. k = constrained ethyl (cEt); [5mC] = 5-methylcytosine; d = 2'-deoxy (DNA)

| substance | measured |
| --- | --- |
| 583660 (antisense kG*kA*k[5mC]*dA*d[5mC]*dA*d[5mC]*dG*dG*dT*dG*dG*dA*k[5mC]*kA*kA) [compound 583660] | 420 nM |
| 583608 (antisense kG*k[5mC]*kT*dA*dG*d[5mC]*dT*d[5mC]*dG*d[5mC]*d[5mC]*d[5mC]*dG*k[5mC]*kT*k[5mC]) [compound 583608] | 350 nM |

Next substance, please.
I have this substance here, 583542 (antisense kA*k[5mC]*kA*dG*d[5mC]*dA*d[5mC]*dT*dG*dG*dA*dG*d[5mC]*kG*kG*k[5mC]) [compound 583542] , and I need its recorded IC50.
900 nM
